# ASSAYED TARGET: Cannabinoid receptor 2 (Homo sapiens, UniProt P34972)
# Sequence (P34972 whole entry): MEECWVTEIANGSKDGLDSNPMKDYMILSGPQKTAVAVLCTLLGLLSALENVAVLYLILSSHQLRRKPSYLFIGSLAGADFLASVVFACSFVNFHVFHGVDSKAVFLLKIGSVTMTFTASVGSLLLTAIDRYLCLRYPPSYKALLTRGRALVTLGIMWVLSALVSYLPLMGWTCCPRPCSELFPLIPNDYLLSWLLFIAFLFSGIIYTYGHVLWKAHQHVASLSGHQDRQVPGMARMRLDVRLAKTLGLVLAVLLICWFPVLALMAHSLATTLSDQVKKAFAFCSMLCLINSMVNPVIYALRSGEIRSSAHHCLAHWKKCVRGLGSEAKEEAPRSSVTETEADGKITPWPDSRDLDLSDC
# EXPERIMENT NOTES: Induction of human CB2 receptor internalization expressed in HEK293 cells at 10 uM relative to CP55940
# Format: cell-based
Quick rule: Activity of at least 50% means Criterion met, below that means Criterion not met.

>  <SMILES STRING>
CCCCCn1c2ccc(C(=O)N3CCCCC3)cc2c2ccc(OC)cc21

>  <ASSIGNED LABEL>
Criterion not met

$$$$
>  <SMILES STRING>
CCCCCn1c2ccccc2c2cc(C(=O)c3ccccc3)ccc21

>  <ASSIGNED LABEL>
Criterion not met

$$$$
>  <SMILES STRING>
CCCCCn1c2ccccc2c2cc(C(=O)N3CCOCC3)ccc21

>  <ASSIGNED LABEL>
Criterion met

$$$$
>  <SMILES STRING>
CCCCCn1c2ccccc2c2cc(C(=O)N3CCCCC3)ccc21

>  <ASSIGNED LABEL>
Criterion met

$$$$
>  <SMILES STRING>
CS(=O)(=O)NCCCn1c2ccccc2c2cc(C(=O)N3CCCCC3)ccc21

>  <ASSIGNED LABEL>
Criterion met

$$$$
>  <SMILES STRING>
CCCCCn1c2ccccc2c2cc(C(=O)N(CC)CC)ccc21

>  <ASSIGNED LABEL>
Criterion met

$$$$

* * *

# ASSAYED TARGET: UniProt P34972
# EXPERIMENT NOTES: Agonist activity at human recombinant CB2 receptor expressed in CHO cells after 1 hr by [35S]GTPgammaS binding assay
PROPERTY LABEL: EC50

>  <SMILES STRING>
CS(=O)(=O)NCCCn1c2ccccc2c2cc(C(=O)N3CCCCC3)ccc21

>  <PROPERTY LABEL>
EC50

>  <VALUE REPORTED>
7.3 nM

$$$$

* * *

Property: Activity; scope: individual compounds
# ASSAYED TARGET: Cannabinoid receptor 2 (Homo sapiens, UniProt P34972)
# EXPERIMENT NOTES: Induction of human CB2 receptor internalization expressed in HEK293 cells at 10 uM relative to CP55940
# Format: cell-based
PROPERTY LABEL: Activity (%)

>  <SMILES STRING>
CCCCCCn1c2ccccc2c2cc(C(=O)N3CCCCC3)ccc21

>  <PROPERTY LABEL>
Activity

>  <VALUE REPORTED>
77

$$$$
>  <SMILES STRING>
O=C(c1ccc2c(c1)c1ccccc1n2CCCCl)N1CCCCC1

>  <PROPERTY LABEL>
Activity

>  <VALUE REPORTED>
111

$$$$
>  <SMILES STRING>
CCCCCn1c2ccccc2c2cc(C(=O)N3CCN(C)CC3)ccc21

>  <PROPERTY LABEL>
Activity

>  <VALUE REPORTED>
43.9

$$$$
>  <SMILES STRING>
CCCCCn1c2ccccc2c2cc(C(=O)N3CCCCC3)ncc21

>  <PROPERTY LABEL>
Activity

>  <VALUE REPORTED>
101

$$$$

* * *

Property: Ki; scope: individual compounds
# ASSAYED TARGET: Cannabinoid receptor 1 (Rattus norvegicus)
# Sequence (P20272 whole entry): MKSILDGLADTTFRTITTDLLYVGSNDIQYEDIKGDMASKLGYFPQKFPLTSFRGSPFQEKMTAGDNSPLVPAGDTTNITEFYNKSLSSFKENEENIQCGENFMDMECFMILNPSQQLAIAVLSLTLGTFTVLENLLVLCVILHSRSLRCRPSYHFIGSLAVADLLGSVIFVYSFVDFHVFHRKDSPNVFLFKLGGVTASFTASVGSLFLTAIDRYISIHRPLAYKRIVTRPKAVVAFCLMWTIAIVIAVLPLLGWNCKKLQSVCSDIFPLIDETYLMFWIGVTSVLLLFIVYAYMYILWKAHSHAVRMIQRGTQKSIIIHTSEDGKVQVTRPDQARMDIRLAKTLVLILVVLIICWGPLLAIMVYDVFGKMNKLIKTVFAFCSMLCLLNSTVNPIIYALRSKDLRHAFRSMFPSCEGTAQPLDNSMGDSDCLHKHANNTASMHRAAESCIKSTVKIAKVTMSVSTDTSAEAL
# EXPERIMENT NOTES: Displacement of [3H]-CP55940 from CB1 receptor in rat brain homogenate after 1.5 hrs by microbeta liquid scintillation counting analysis
# Type: tissue-based
# RUN PARAMETERS: read-out: Ki

>  <SMILES STRING>
CCCCCn1c2ccccc2c2cc(C(=O)OCc3ccccn3)ccc21

>  <Ki, nM>
679

$$$$
>  <SMILES STRING>
COCCCn1c2ccccc2c2cc(C(=O)N3CCCCC3)ccc21

>  <Ki, nM>
1440

$$$$
>  <SMILES STRING>
O=C(c1ccc2c(c1)c1ccccc1n2CCCl)N1CCCCC1

>  <Ki, nM>
2360

$$$$
>  <SMILES STRING>
CCCCCn1c2ccccc2c2cc(C(=O)N3CCS(=O)(=O)CC3)ccc21

>  <Ki, nM>
440

$$$$
>  <SMILES STRING>
O=C(c1ccc2c(c1)c1ccccc1n2CC1CCOCC1)N1CCCCC1

>  <Ki, nM>
19.5

$$$$
>  <SMILES STRING>
CCCCCn1c2ccccc2c2cc(C(=O)N3CCCCC3)ncc21

>  <Ki, nM>
136

$$$$
>  <SMILES STRING>
CCCCCn1c2ccccc2c2cc(C(=S)N3CCCCC3)ccc21

>  <Ki, nM>
40.6

$$$$
>  <SMILES STRING>
O=C(OCCCn1c2ccccc2c2cc(C(=O)N3CCCCC3)ccc21)N1CCS(=O)(=O)CC1

>  <Ki, nM>
2260

$$$$
>  <SMILES STRING>
CCCCCn1c2ccccc2c2cc(C(=O)CN3CCCCC3)ccc21

>  <Ki, nM>
3330

$$$$
>  <SMILES STRING>
CCCCCn1c2ccccc2c2cc(CN3CCN(C)CC3)ccc21

>  <Ki, nM>
244

$$$$
>  <SMILES STRING>
CCCCCn1c2ccccc2c2cc(C(=O)CN3CCS(=O)(=O)CC3)ccc21

>  <Ki, nM>
675

$$$$
>  <SMILES STRING>
CN(C)CCCn1c2ccccc2c2cc(C(=O)N3CCCCC3)ccc21

>  <Ki, nM>
2390

$$$$
>  <SMILES STRING>
COC(=O)CCCn1c2ccccc2c2cc(C(=O)N3CCCCC3)ccc21

>  <Ki, nM>
1850

$$$$
>  <SMILES STRING>
CCCCCn1c2ccccc2c2cc(C(=O)OCC)ncc21

>  <Ki, nM>
1860

$$$$
>  <SMILES STRING>
CCOC(=O)CCn1c2ccccc2c2cc(C(=O)N3CCCCC3)ccc21

>  <Ki, nM>
4980

$$$$
>  <SMILES STRING>
O=C(c1ccc2c(c1)c1ccccc1n2Cc1cccnc1)N1CCCCC1

>  <Ki, nM>
1020

$$$$
>  <SMILES STRING>
CCCCCCCn1c2ccccc2c2cc(C(=O)N3CCCCC3)ccc21

>  <Ki, nM>
943

$$$$
>  <SMILES STRING>
CCCn1c2ccccc2c2cc(C(=O)N3CCCCC3)ccc21

>  <Ki, nM>
600

$$$$
>  <SMILES STRING>
CCCCCn1c2ccccc2c2cc(CN3CCCCC3)ccc21

>  <Ki, nM>
122

$$$$
>  <SMILES STRING>
CCCCCn1c2ccccc2c2cc(C(=O)N3CCOCC3)ccc21

>  <Ki, nM>
60

$$$$
>  <SMILES STRING>
CCCCCn1c2ccccc2c2cc(C(=O)N3CCN(C)CC3)ccc21

>  <Ki, nM>
123

$$$$
>  <SMILES STRING>
CCCCCn1c2ccccc2c2cc(C(=O)NCC(C)(C)C)ncc21

>  <Ki, nM>
43.6

$$$$
>  <SMILES STRING>
CCCCCn1c2ccccc2c2cc(C(=O)N3CCCCC3)ccc21

>  <Ki, nM>
77

$$$$
